ASSAY TARGET: T1, mouse serum albumin (mouse, UniProt P07724 25-608)
T1 construct: also called MSA
T1 sequence (P07724 25-608 limits assumed): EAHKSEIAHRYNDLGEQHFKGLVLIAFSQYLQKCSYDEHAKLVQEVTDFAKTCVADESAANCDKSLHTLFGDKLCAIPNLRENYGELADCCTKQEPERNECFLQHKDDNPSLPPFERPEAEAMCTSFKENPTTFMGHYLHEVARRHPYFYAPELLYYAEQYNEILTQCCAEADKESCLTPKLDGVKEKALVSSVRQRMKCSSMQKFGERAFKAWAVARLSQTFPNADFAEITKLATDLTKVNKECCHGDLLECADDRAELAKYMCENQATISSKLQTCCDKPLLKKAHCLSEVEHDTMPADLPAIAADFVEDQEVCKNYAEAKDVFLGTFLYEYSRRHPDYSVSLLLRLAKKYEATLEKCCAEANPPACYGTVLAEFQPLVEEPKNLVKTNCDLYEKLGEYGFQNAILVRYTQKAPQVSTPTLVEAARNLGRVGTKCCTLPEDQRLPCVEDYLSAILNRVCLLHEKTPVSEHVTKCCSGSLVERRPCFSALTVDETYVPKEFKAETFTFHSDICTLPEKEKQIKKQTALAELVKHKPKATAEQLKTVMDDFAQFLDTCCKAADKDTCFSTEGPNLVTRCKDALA
ASSAY INFO: Octet biolayer interferometry, biotinylated albumin on SA sensors, pH 6.0
ASSAY ENDPOINT: kon (M⁻¹ s⁻¹)

binder="HSA-31 (designed binder) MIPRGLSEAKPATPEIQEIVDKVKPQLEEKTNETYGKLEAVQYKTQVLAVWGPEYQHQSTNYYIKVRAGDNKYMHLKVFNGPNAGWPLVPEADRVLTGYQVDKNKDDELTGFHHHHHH" value_reported=166000
binder="HSA-36 (designed binder) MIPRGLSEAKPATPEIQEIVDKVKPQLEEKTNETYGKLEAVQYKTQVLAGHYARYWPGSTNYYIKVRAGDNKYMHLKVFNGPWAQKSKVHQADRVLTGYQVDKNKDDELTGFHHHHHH" value_reported=200000
binder="HSA-41 (designed binder, also called HSA-41 parent; HSA-41 AH parent) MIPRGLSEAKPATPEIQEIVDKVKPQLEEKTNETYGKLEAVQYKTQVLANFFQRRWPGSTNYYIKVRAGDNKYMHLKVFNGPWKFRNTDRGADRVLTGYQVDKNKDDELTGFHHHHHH" value_reported=470000
binder="HSA-20 (designed binder) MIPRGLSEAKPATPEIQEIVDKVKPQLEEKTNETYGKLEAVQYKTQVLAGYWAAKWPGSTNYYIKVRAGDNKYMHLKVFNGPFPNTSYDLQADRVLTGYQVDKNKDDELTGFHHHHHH" value_reported=117000
